Entries and their IC50 values follow.
Target of assay: human KCa3.1 (Homo sapiens (Human))
Method description: KCa3.1 Assay (FLIPR thallium influx)
Condition summary: HEK293 cells over-expressing human KCa3.1; Tl+ influx, FLIPR dye; 15 min compound treatment
Description: HEK293 cells over-expressing human KCa3.1 are used to measure the effects of compounds in inhibiting the KCa3.1 channel function. […] The plate is read on HAMAMATSU […] measuring fluorescence signal for 50 seconds using (Em: 565-625 nm). […] Percent of control (POC) is calculated as 100×(max-minFlsample−max-minFllow)/(max-minFlhi−max-minFllow). […] IC50 values are determined by nonlinear curve fitting of the data from a duplicate 11-point concentration-response curve.

{"columns": ["Compound", "Target of assay", "IC50, nM"],
 "data": [
  ["CC(C)c1nc2c(s1)SCC(=O)N2Cc1cccc(C(F)(F)F)c1 [II-19]", "human KCa3.1 (Homo sapiens (Human))", 340],
  ["O=C1CS(=O)(=O)c2cccnc2N1CCc1cccc(C(F)(F)F)c1 [Compound I-7]", "human KCa3.1 (Homo sapiens (Human))", 350],
  ["Cc1nc2c(s1)SCC(=O)N2Cc1cccc(C(F)(F)F)c1 [II-22]", "human KCa3.1 (Homo sapiens (Human))", 73]
]}

* * *

Target of assay: human KCa3.1 (Homo sapiens (Human), UniProt O15554)
Method description: KCa3.1 Assay (FLIPR thallium influx)
Condition summary: HEK293 cells over-expressing human KCa3.1; Tl+ influx, FLIPR dye; 15 min compound treatment
Description: HEK293 cells over-expressing human KCa3.1 are used to measure the effects of compounds in inhibiting the KCa3.1 channel function. […] The plate is read on HAMAMATSU […] measuring fluorescence signal for 50 seconds using (Em: 565-625 nm). […] Percent of control (POC) is calculated as 100×(max-minFlsample−max-minFllow)/(max-minFlhi−max-minFllow). […] IC50 values are determined by nonlinear curve fitting of the data from a duplicate 11-point concentration-response curve.
Entries and their IC50 values follow.
Readout kind: IC50 (nM)

{"columns": ["Molecule", "Obs value"],
 "data": [
  ["CC(C)c1nc2c(s1)S(=O)(=O)CC(=O)N2Cc1cccc(C(F)(F)F)c1", 240],
  ["CC(C)c1nc2c(s1)S(=O)(=O)CC(=O)N2Cc1ccc(F)c(OC(F)(F)F)c1", 96],
  ["CC(C)c1nc2c(s1)S(=O)(=O)CC(=O)N2Cc1cccc(OC(F)(F)F)c1", 380],
  ["CC(c1cccc(C(F)(F)F)c1)N1C(=O)CS(=O)(=O)c2ccsc21 (stereo not drawn)", 71],
  ["O=C1CS(=O)(=O)c2nccnc2N1Cc1cccc(C(F)(F)F)c1", 2600],
  ["O=C1CSc2ncsc2N1Cc1cccc(C(F)(F)F)c1", 320],
  ["CC(c1cc(C(F)(F)F)nn1C)N1C(=O)CSc2cccnc21 (stereo not drawn)", 3600],
  ["O=C1CS(=O)(=O)c2ncsc2N1Cc1cccc(OC(F)(F)F)c1", 2200],
  ["O=C1CS(=O)(=O)c2cc(Cl)cnc2N1Cc1ccc(F)c(OC(F)(F)F)c1", 92]
]}

* * *

Target of assay: human KCa3.1 (Homo sapiens (Human))
Method description: KCa3.1 Assay (FLIPR thallium influx)
Condition summary: HEK293 cells over-expressing human KCa3.1; Tl+ influx, FLIPR dye; 15 min compound treatment
pIC50: −log10 of the molar value.

{"columns": ["Compound", "pIC50"],
 "data": [
  ["COC(=O)c1cc2c(s1)S(=O)(=O)CC(=O)N2Cc1cccc(C(F)(F)F)c1", 6.72],
  ["CC(c1cc(C(F)(F)F)ccn1)N1C(=O)CS(=O)(=O)c2cccnc21 (stereo not drawn)", 5.72],
  ["CC(c1cccc(C(F)(F)F)c1)N1C(=O)CS(=O)(=O)c2cccnc21 (stereo not drawn)", 6.92],
  ["CC(c1cccc(C(F)(F)F)c1)N1C(=O)CS(=O)(=O)c2cc(Cl)cnc21 (stereo not drawn)", 6.96],
  ["O=C1CS(=O)(=O)c2cccnc2N1Cc1ccc(Cl)c(S(=O)(=O)C(F)(F)F)c1", 6.08],
  ["Cc1nc2c(s1)N(Cc1cccc(C(F)(F)F)c1)C(=O)CS2", 6.31],
  ["O=C1CSc2nc(C3CC3)sc2N1Cc1cccc(C(F)(F)F)c1", 5.80],
  ["CC(c1ccc(Cl)c(C(F)(F)F)c1)N1C(=O)CS(=O)(=O)c2cccnc21 (stereo not drawn)", 6.85],
  ["O=C1CS(=O)(=O)c2nc(C3CC3)sc2N1Cc1cccc(C(F)(F)F)c1", 5.37]
]}
